Listing of entries alongside the reported MIC.
Test system: Streptococcus pyogenes
Assay: Antibacterial activity against erythromycin-susceptible Streptococcus pyogenes 07U084 by broth microdilution method
Format: functional
I only need the number, in µg/mL, no unit after it.

Field request: MIC | item: CC[C@H]1OC(=O)[C@H](C)C(=O)[C@H](C)[C@@H](O[C@@H]2O[C@H](C)C[C@H](N(C)C)[C@H]2O)[C@@](C)(OC)C[C@@H](C)C(=O)[C@H](C)[C@H]2N(CCCSc3ccoc3C)C(=O)O[C@]12C
0.125

Would you kindly repeat that for CC[C@H]1OC(=O)[C@H](C)C(=O)[C@H](C)[C@@H](O[C@@H]2O[C@H](C)C[C@H](N(C)C)[C@H]2O)[C@@](C)(OC)C[C@@H](C)C(=O)[C@H](C)[C@H]2N(CCCSc3nc4cc(OC)ccc4s3)C(=O)O[C@]12C ?
0.062

Would you kindly repeat that for CC[C@H]1OC(=O)[C@H](C)C(=O)[C@H](C)[C@@H](O[C@@H]2O[C@H](C)C[C@H](N(C)C)[C@H]2O)[C@@](C)(OC)C[C@@H](C)C(=O)/C(C)=C/[C@]1(C)OC(=O)NCCCSc1nc2ccccc2o1 ?
2

Would you kindly repeat that for CC[C@H]1OC(=O)[C@H](C)C(=O)[C@H](C)[C@@H](O[C@@H]2O[C@H](C)C[C@H](N(C)C)[C@H]2O)[C@@](C)(OC)C[C@@H](C)C(=O)[C@H](C)[C@H]2N(CCCSc3ccccn3)C(=O)O[C@]12C ?
0.016

Would you kindly repeat that for CC[C@H]1OC(=O)[C@H](C)C(=O)[C@H](C)[C@@H](O[C@@H]2O[C@H](C)C[C@H](N(C)C)[C@H]2O)[C@](C)(OC)C[C@@H](C)C(=O)[C@H](C)[C@H]2N(CCCCn3cnc(-c4cccnc4)c3)C(=O)O[C@]12C ?
0.062

Would you kindly repeat that for CC[C@H]1OC(=O)[C@H](C)C(=O)[C@H](C)[C@@H](O[C@@H]2O[C@H](C)C[C@H](N(C)C)[C@H]2O)[C@@](C)(OC)C[C@@H](C)C(=O)/C(C)=C/[C@]1(C)OC(=O)NCCCSc1ncnc2[nH]ncc12 ?
0.25

***
Field request: MIC | item: CC[C@H]1OC(=O)[C@H](C)[C@@H](O[C@H]2C[C@@](C)(OC)[C@@H](O)[C@H](C)O2)[C@H](C)[C@@H](O[C@@H]2O[C@H](C)C[C@H](N(C)C)[C@H]2O)[C@](C)(OC)C[C@@H](C)C(=O)[C@H](C)[C@@H](O)[C@]1(C)O
0.031

Would you kindly repeat that for CC[C@H]1OC(=O)[C@H](C)C(=O)[C@H](C)[C@@H](O[C@@H]2O[C@H](C)C[C@H](N(C)C)[C@H]2O)[C@@](C)(OC)C[C@@H](C)C(=O)/C(C)=C/[C@]1(C)OC(=O)NCCCSc1nc2cc([N+](=O)[O-])ccc2[nH]1 ?
0.125

Hello, the source for this data is ChEMBL document CHEMBL1649395, in case you need it.
